Biological target: Tyrosine-protein phosphatase non-receptor type 1 (Homo sapiens)
Sequence (P18031 whole entry): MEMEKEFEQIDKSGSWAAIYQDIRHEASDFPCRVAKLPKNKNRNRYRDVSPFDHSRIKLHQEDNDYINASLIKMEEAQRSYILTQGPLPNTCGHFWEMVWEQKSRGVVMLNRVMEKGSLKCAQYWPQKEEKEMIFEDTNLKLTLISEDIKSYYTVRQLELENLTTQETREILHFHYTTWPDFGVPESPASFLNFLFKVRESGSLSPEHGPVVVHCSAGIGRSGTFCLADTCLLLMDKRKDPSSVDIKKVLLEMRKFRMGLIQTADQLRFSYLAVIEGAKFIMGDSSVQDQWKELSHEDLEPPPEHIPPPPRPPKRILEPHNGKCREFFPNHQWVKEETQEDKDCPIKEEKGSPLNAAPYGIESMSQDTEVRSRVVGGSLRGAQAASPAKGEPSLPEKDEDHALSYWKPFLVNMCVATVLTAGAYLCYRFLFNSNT
measured-endpoint: IC50 (µM)
// return numeric value only (unit: µM, not printed)

smiles_code=C=C1C[C@@]23CC[C@H]4[C@@](C)(CCC[C@@]4(C)C(=O)O[C@@H]4O[C@H](CO)[C@@H](O[C@@H]5OC[C@H](O)[C@H](O)[C@H]5O)[C@H](OC(C)=O)[C@H]4OC(C)=O)[C@@H]2[C@@H](O)[C@@H]1C(=O)C3 measured_endpoint=IC50 endpoint_unit=µM value_observed=527

Okay, now this molecule:
For this molecule ( `CC(=O)O[C@@H]1[C@@H](OC(C)=O)[C@H](OC(=O)[C@]2(C)CCC[C@@]3(C)[C@@H]4[C@@H](O)C[C@@H]5C[C@@]4(CC[C@@H]32)C[C@@]5(O)CO)O[C@H](CO)[C@H]1O[C@@H]1OC[C@H](O)[C@H](O)[C@H]1O` ), measured IC50 is 31.8

* * *

The entries below are paired with their reported IC50.
Target: Tyrosine-protein phosphatase non-receptor type 1 (Homo sapiens, UniProt P18031)
Sequence (P18031 whole entry): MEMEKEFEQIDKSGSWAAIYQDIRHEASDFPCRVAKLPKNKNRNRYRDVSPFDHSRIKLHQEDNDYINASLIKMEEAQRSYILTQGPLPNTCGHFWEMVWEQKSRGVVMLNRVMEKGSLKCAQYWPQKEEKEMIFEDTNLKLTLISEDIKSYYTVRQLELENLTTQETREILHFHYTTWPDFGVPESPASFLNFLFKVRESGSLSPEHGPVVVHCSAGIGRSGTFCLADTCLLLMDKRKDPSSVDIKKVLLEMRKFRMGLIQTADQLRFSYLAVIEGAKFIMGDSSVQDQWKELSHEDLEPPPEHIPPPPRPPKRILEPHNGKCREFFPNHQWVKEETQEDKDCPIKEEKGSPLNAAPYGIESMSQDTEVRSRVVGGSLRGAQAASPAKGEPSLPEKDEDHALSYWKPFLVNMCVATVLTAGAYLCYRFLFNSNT
Answer shape: numeric part, then the unit.

A selection of reference data follows.
smiles_code=CC(=O)O[C@@H]1CC[C@]2(C)[C@H]3CCC4=C([C@@H](C)CCC=C(C)C)CC[C@@]4(C)[C@]3(C)CC[C@H]2C1(C)C system_tested="Tyrosine-protein phosphatase non-receptor type 1 (Homo sapiens, UniProt P18031)" value_observed="1180 µM"
smiles_code=CC(=O)O[C@@H]1[C@@H](OC(C)=O)[C@H](OC(=O)[C@]2(C)CCC[C@@]3(C)[C@@H]4[C@@H](O)[C@@H]5C(=O)C[C@]4(C=C5C)CC[C@@H]32)O[C@H](CO)[C@H]1O[C@@H]1OC[C@H](O)[C@H](O)[C@H]1O system_tested="Tyrosine-protein phosphatase non-receptor type 1 (Homo sapiens, UniProt P18031)" value_observed="532 µM"

Okay, now this compound:
For this compound ( `C=C1[C@@H]2CC[C@H]3[C@]4(C)CCC[C@@](C)(C(=O)O[C@@H]5O[C@H](CO)[C@@H](O[C@@H]6OC[C@H](O)[C@H](O)[C@H]6O)[C@H](OC(C)=O)[C@H]5OC(C)=O)[C@H]4CC[C@]3(C2)[C@H]1O[C@@H]1O[C@H](CO)[C@@H](O)[C@H](O)[C@H]1O` ), measured IC50 is 928 µM

Hey, just so you know, these numbers are from ChEMBL document CHEMBL5344421.
